Hey, just so you know, these numbers are from patent US20210330611A1.

Test system: primary rat microglia
run_description: Cell toxicity (dead cells, size <150 μm2) in coated fibrin (cFib) assay;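 for Fibrin % cell toxicity: share of dead cells sized under 150 µm2 at 10 µM in fibrin-stimulated microglia HTS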
condition_notes: primary microglia HTS, fibrin stimulation, toxicity = cell size <150 μm2
Measured Fibrin % cell toxicity accompanies every entry in the list below.
Provide only the numeric value, understood in %.

CC1=C(/C=C/C(C)=C/C=C/C(C)=C/C(=O)Nc2ccc(O)cc2)C(C)(C)CCC1 [Fenretinide] ... 0

Please report the recorded Fibrin % cell toxicity for OC[C@H]1O[C@@H](O[C@@H]2[C@@H](CO)OC(O)(CO)[C@H]2O)[C@H](O)[C@@H](O)[C@H]1O (mixture of isomers) [Lactulose] .
0

For the molecule shown here, O=C1OC(CN2CCOCC2)CN1/N=C/c1ccc([N+](=O)[O-])o1 (stereo not drawn) [Furaltadone] , give the reported Fibrin % cell toxicity.
1

Report Fibrin % cell toxicity for CC1(C)S[C@@H]2[C@H](N3C(=O)[C@@H](c4ccccc4)NC3(C)C)C(=O)N2[C@H]1C(=O)O [Hetacillin Potassium] please.
0

State the recorded Fibrin % cell toxicity for this entry: COC(=O)C1=C(C)NC(C)=C(C(=O)OC(C)C)C1c1cccc2nonc12 (stereo not drawn) [Isradipine]
1

So what does the record say about Fibrin % cell toxicity for NS(=O)(=O)c1cc2c(cc1Cl)NCNS2(=O)=O [Hydrochlorothiazide] ?
0

Need Fibrin % cell toxicity of CC(C)COC(=O)c1ccc(N)cc1 [Isobutamben] , thanks.
1

Reported Fibrin % cell toxicity, molecule CC(C)Nc1ncccn1 [Isaxonine] : ____
0

---

Tested on: primary rat microglia
condition_notes: rat
Entries and their measured LPS % cell toxicity follow.

Before answering, review these 4 worked examples.
OCCc1ccccc1 ... 0%
CN(C)c1nc(N(C)C)nc(N(C)C)n1 ... 0%
C[Se]CC[C@H](N)C(=O)O ... 0%
CC(=O)OCC[N+](C)(C)C ... 0%

Query: LPS % cell toxicity; subject: COc1ccc(C(=O)CC(=O)c2ccc(C(C)(C)C)cc2)cc1
0%

For the compound shown here, CCCCCCCCNC(C)C(O)c1ccc(SC(C)C)cc1 (stereo not shown) , give the reported LPS % cell toxicity.
0%

---

Test system: primary rat microglia
run_description: Cell toxicity (dead cells, size <150 μm2) in LPS assay
condition_notes: primary microglia HTS, LPS stimulation; decreased size (<150 μm^2) as marker of toxicity
experimental_endpoint: LPS % cell toxicity (%)
Write the value in % as a bare number.

// worked examples, LPS % cell toxicity included
CC[C@@H](C(=O)[C@@H](C)[C@@H](O)[C@H](C)[C@@H]1O[C@@H]([C@@H](CC)C(=O)O)CC[C@@H]1C)[C@H]1O[C@]2(C=C[C@@H](O)[C@]3(CC[C@@](C)([C@H]4CC[C@](O)(CC)[C@H](C)O4)O3)O2)[C@H](C)C[C@@H]1C [Salinomycin, sodium, reference compound] ... 1
Clc1cc(Cl)c(OCC#CI)cc1Cl ... 70

Now for the molecule whose LPS % cell toxicity we want.
Find LPS % cell toxicity (primary rat microglia) for the entry CN1C(=O)CC(C)(c2ccccc2)C1=O (centres unmarked) [Methsuximide]
0

---

run_description: in vitro
condition_notes: rat, Cell Toxicity IC50 (uM) [cFib assay], cFib assay
experimental_endpoint: IC50

CO[C@H]1C[C@@H]2CC[C@@H](C)[C@@](O)(O2)C(=O)C(=O)N2CCCC[C@H]2C(=O)O[C@H]([C@H](C)C[C@@H]2CC[C@@H](O)[C@H](OC)C2)CC(=O)[C@H](C)/C=C(\C)[C@@H](O)[C@@H](OC)C(=O)[C@H](C)C[C@H](C)/C=C/C=C/C=C/1C [Rapamycin, reference compound] ... > 20 µM

Now for another entry.
Looking for the measured IC50 of COc1ccc(-n2nc(CCC(=O)N(C)O)cc2-c2ccc(Cl)cc2)cc1 [Tepoxalin, reference compound] , can you help?
> 20 µM

---

Test system: LPS-induced microglia activation
run_description: Image-based assay of LPS-induced microglia activation (HTS and dose response)
Type: cell-based, rat
condition_notes: Rattus norvegicus, Microglia, 48 h, primary microglia HTS, LPS stimulation, activation = cell size >800 μm2; read-out: LPS % inhibition
Counter-ions that a name gives are not always drawn.
experimental_endpoint: inhibition at 10 µM (%)
Return type: number; implicit unit %.

Worked examples follow.
CC1CCc2cc(F)cc3c(=O)c(C(=O)O)cn1c23 (centres unmarked) ... 16
CC(C)CC(N)=O [Isovaleramide] ... 1
CCC(=O)O[C@H](CC(=O)O)C[N+](C)(C)C [Levocarnitine Propionate Hydrochloride] ... 12
N=C(N)NCC1COC2(CCCCC2)O1 (centres unmarked) ... 5

Entry Nc1nc(N)nc(-c2cc(Cl)ccc2Cl)n1 [Irsogladine Maleate] : reported inhibition at 10 µM = ?
14

---

Test system: primary rat microglia
condition_notes: rat
Examples of molecules with documented Fibrin % cell toxicity follow.
Express your answer in %, writing the number without its unit.

Which Fibrin % cell toxicity reading was recorded for the molecule CCCCOCCOCCOCc1cc2c(cc1CCC)OCO2 [Piperonyl Butoxide] ?
0

Given the entry Oc1ccc2ccccc2c1 , report its measured Fibrin % cell toxicity.
0

Field request: Fibrin % cell toxicity | item: N[C@@H](CCC(=O)N[C@@H](CS)C(=O)NCC(=O)O)C(=O)O
1

May I ask what Fibrin % cell toxicity has been recorded for O=C(NC(Cc1cc(=O)[nH]c2ccccc12)C(=O)O)c1ccc(Cl)cc1 (stereo not shown) [Rebamipide, reference compound] ?
1

---

Tested on: primary rat microglia
run_description: Cell toxicity (dead cells, size <150 μm2) in coated fibrin (cFib) assay;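 for Fibrin % cell toxicity: share of dead cells sized under 150 µm2 at 10 µM in fibrin-stimulated microglia HTS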
condition_notes: primary microglia HTS, fibrin assay, dead cells (size <150 μm2)
experimental_endpoint: Fibrin % cell toxicity

Need Fibrin % cell toxicity of Nc1ncnc2nc[nH]c12 [Adenine] , thanks.
1%

Recorded Fibrin % cell toxicity for O=C(N/N=C/c1ccc([N+](=O)[O-])o1)c1ccc(O)cc1 [Nifuroxazide] , please?
6%

// returns reported Fibrin % cell toxicity for input CC(=O)Nc1ccc(C(=O)O)cc1 [4-acetamidobenzoic acid]
1%

---

Test system: primary rat microglia
run_description: Cell toxicity (dead cells, size <150 μm2) in coated fibrin (cFib) assay;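 for Fibrin % cell toxicity: share of dead cells sized under 150 µm2 at 10 µM in fibrin-stimulated microglia HTS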
condition_notes: primary HTS, 10 μM, fibrin assay, dead cells size <150 μm2
experimental_endpoint: Fibrin % cell toxicity (%)
Give your result in % as a bare value.

Record excerpt, results attached:
C[N+]12CCC(CC1)C(OC(=O)C(O)(c1ccccc1)c1ccccc1)C2 (stereo not shown) [Clidinium Bromide] ... 1
CN(C)CCN(Cc1ccc(Cl)cc1)c1ccccn1 [Chloropyramine] ... 1
CC(=O)OCC1=C(C(=O)[O-])N2C(=O)[C@@H](NC(=O)CCCC(N)C(=O)O)[C@H]2SC1.[Na+] (stereo partly shown) [Cephalosporin C Sodium] ... 1
Cc1ccc2c(Cl)cc(Cl)c(O)c2n1 [Chlorquinaldol] ... 1
COC(=O)N/N=C/c1c[n+]([O-])c2ccccc2[n+]1[O-] [Carbadox] ... 1

Any idea what its Fibrin % cell toxicity is? The molecule is CO[C@@]1(NC(=O)Cc2cccs2)C(=O)N2C(C(=O)O)=C(COC(N)=O)CS[C@@H]21 [Cefoxitin]
0

Reported Fibrin % cell toxicity for Cc1cc(C2CCCCC2)n(O)c(=O)c1 [Ciclopirox] : what is it?
1

Name the reported Fibrin % cell toxicity value associated with the molecule CCNC(=O)/C=C/c1cccc(Br)c1 [Cinromide]
1

---

Test system: primary rat microglia
run_description: Cell toxicity (dead cells, size <150 μm2) in LPS assay
condition_notes: primary microglia HTS, LPS stimulation; decreased size (<150 μm^2) as marker of toxicity
Where a name gives a salt, the structure may show the parent alone.
experimental_endpoint: LPS % cell toxicity (%)
Form entry: value (%) — number only.

Use the examples below as a reference point.
CN(C)[C@@H]1C(O)=C(C(N)=O)C(=O)[C@@]2(O)C(O)=C3C(=O)c4c(O)ccc(Cl)c4[C@@H](O)[C@H]3C[C@@H]12 [Demeclocycline hydrochloride, reference compound] ... 1
CCOC(=O)C1=C[C@@H](OC(CC)CC)[C@H](NC(C)=O)[C@@H](N)C1 [Oseltamivir] ... 1
C#C[C@]1(O)CC[C@H]2[C@@H]3CCC4=Cc5oncc5C[C@]4(C)[C@H]3CC[C@@]21C ... 14

Please look at the following compound next.
Please report the recorded LPS % cell toxicity for C[N+]1(C)CCCC(OC(=O)C(O)(c2ccccc2)c2ccccc2)C1 (stereo not drawn) [Mepenzolate] .
1

---

Test system: fibrin-induced microglia activation
run_description: Image-based assay of fibrin-induced microglia activation (HTS and dose response)
Type: cell-based, rat
condition_notes: Rattus norvegicus, Microglia, read-out: fib_IC50 (uM)
experimental_endpoint: IC50 (µM)
Please give a number only; it is taken to be in µM.

Recorded IC50 of CC(=O)OCC(=O)[C@@]12OC(C)(C)O[C@@H]1C[C@H]1[C@@H]3C[C@H](F)C4=CC(=O)C=C[C@]4(C)[C@@]3(F)[C@@H](O)C[C@@]12C [Fluocinonide, reference compound] , please.
0.002
